Entries and their measured T/C follow.
Tested on: L1210 leukemia ip in BDF1 mice, survival T/C
assay.procedure: NCI In Vivo Anticancer Drug Screen. Data for tumor model L1210 Leukemia (intraperitoneal) in B6D2F1 (BDF1) mice
experimental.conditions: endpoint: mean survival time; dose: 200.0 mg/kg/injection; schedule: Q01DX009 (ip); vehicle: other; higher = longer survival
Toxic doses and inconclusive results are not listed.

Sample answers from the record:
{"columns": ["molecule", "T/C"],
 "data": [
  ["C[Si](C)(C)Oc1ccc(O[Si](C)(C)C)cc1", "94 % of control"],
  ["CCCC1(CCC)c2ccccc2C(CCl)(OCC)c2ccccc21", "88 % of control"],
  ["CCC/C=C/CC1CC2CC(C1C)C2(C)C (centres undefined)", "90 % of control"]
]}

Moving on to the next molecule.
Form field, T/C with L1210 leukemia ip in BDF1 mice, survival T/C, item "CCCCCCCCCCCCCCCCCCNC(=O)Nc1ccccc1" : 100 % of control

* * *

Test system: L1210 leukemia ip in BDF1 mice, survival T/C
assay.procedure: NCI In Vivo Anticancer Drug Screen. Data for tumor model L1210 Leukemia (intraperitoneal) in B6D2F1 (BDF1) mice
experimental.conditions: endpoint: mean survival time; dose: 100.0 mg/kg/injection; schedule: Q04DX003 (ip); vehicle: other; higher = longer survival
Inconclusive results and toxic doses are left out. Peptide text beside a SMILES is read from it. * marks the point of attachment. ONp = O=[N+]([O-])c1ccc(O*)cc1; Tos = Cc1ccc(S(=O)(=O)*)cc1
endpoint: T/C

Sample answers from the record:
{"columns": ["compound", "result.value"],
 "data": [
  ["ClCCN(CCCl)c1ccc(/C=C\\c2ccnc3ccccc23)cc1", "96 % of control"],
  ["COC(=O)C1CCCC(=O)C1C(=O)OC (centres undefined)", "106 % of control"],
  ["CCCC1(CCC)c2ccccc2C(CCl)(OCC)c2ccccc21", "100 % of control"],
  ["Cc1cc(C(=O)O)ccc1Cl", "101 % of control"],
  ["CC(=O)Nc1ccc(Cl)c(Cl)c1", "101 % of control"]
]}

Measured T/C, Cc1ccc(S(=O)(=O)NCC(=O)NCC(=O)Oc2ccc([N+](=O)[O-])cc2)cc1 (Tos-Gly-Gly-ONp) : 105 % of control

Measured T/C, CC(C)CC(CO)Cc1nc2ccccc2[nH]1 (centres undefined) : 97 % of control

Measured T/C, "Cc1cc2c(c(=O)n1C)COC2=O" : 100 % of control

Measured T/C, C[C@H](CCC(=O)O)[C@H]1CC[C@H]2[C@@H]3[C@H](O)C[C@@H]4C[C@H](O)CC[C@]4(C)[C@H]3C[C@H](O)[C@]12C (tested in a mixture with another compound) : 97 % of control

* * *

Test system: L1210 leukemia ip in BDF1 mice, survival T/C
assay.procedure: NCI In Vivo Anticancer Drug Screen. Data for tumor model L1210 Leukemia (intraperitoneal) in B6D2F1 (BDF1) mice
experimental.conditions: endpoint: mean survival time; dose: 25.0 mg/kg/injection; schedule: Q04DX002 (ip); vehicle: saline with Tween-80; higher = longer survival
Inconclusive results and toxic doses are left out.
Entries and their measured T/C follow.

{"columns": ["molecule", "T/C"],
 "data": [
  ["CC(=O)OC(C)(C)/C=C/C(=O)C(C)(O)C1C(O)CC2(C)C3CC=C4C(C=C(OC5OC(CO)C(O)C(O)C5O)C(=O)C4(C)C)C3(C)C(=O)CC12C (stereo unspecified)", "98 % of control"],
  ["N#CSCC(CCCCCCCCC(=O)O)SC#N (stereo unspecified)", "100 % of control"]
]}

Measured T/C, C[P+]1(C)CC=C2CCCCC21 (stereo unspecified) : 98 % of control

Measured T/C, O=C1OC(O)C(Cl)=C1Cl (stereo unspecified) : 114 % of control

Measured T/C, COC(=O)C1C(=O)CCC2CN3CCc4c([nH]c5ccccc45)C3CC21 (stereo unspecified) : 100 % of control

Measured T/C, CCC1COC(=S)N1 (stereo unspecified) : 103 % of control
